Target: SARS-CoV-2 Receptor Binding Domain (RBD) protein (SARS-CoV-2, UniProt P0DTC2 319-541)
Assay: SPR, scFv captured via anti-V5, RBD as analyte
Listed binders paired with reported Kd
attribute-measured: Kd

COVID19_P08_D04 (scFv, V domains shown) VH: EVQLVESGGGLVQPGGSLRLSCAASGFIFSSYAMNWVRQAPGKGLEWVSGISGSGGGAYYADSVKGRFTISRDNSKNTLYLQMNSLRAEDTAVYYCVTNLDNSRDYFPHYFHDMDVWGQGTLVTVSS VL: DIVMTQSPLSLPVTPGEPASISCRSSQSLLQSNGYNYMDWYLQKPGQSPQLLIYLTSNRAAGVPDRFSGSGSGTDFTLKISRVEAEDVGVYYCQQSYGPPLTFGGGTKVEIKR : 0.86 nM
COVID19_P07_D04 (scFv, V domains shown) VH: EVQLVESGGGLVQPGGSLRLSCAASGFRFSDHPMHWVRQAPGKGLEWVAVITGSGRNKFYADSVKGRFTISRDNSKNTLYLQMNSLRAEDTAVYYCVTNMDNSRDYFPHYFHDMDVWGQGTLVTVSS VL: DIVMTQSPLSLPVTPGEPASISCRSSQSLLHRNGYNYLDWYLQKPGQSPQLLIYGASTRATGVPDRFSGSGSGTDFTLKISRVEAEDVGVYYCTQSLQTPLTFGGGTKVEIKR : 2.3 nM

Where do the numbers come from? From patent US11053304.
